System: Saccharomyces cerevisiae
Assay: protein stability index of tFT-peptide fusion (C-terminal peptide) (PSI (0-1 scale)); higher = more stable (slower turnover)
Conditions: genetic background: wild type; temperature: 30 C
endpointLabel: protein stability index

>>> print(df.to_string())
    polymersequence  observedresult
 0     LFCVCFYGRIFL           0.423
 1     LFVFSVCSWPRV           0.579
 2     GGYDFRCPCCGV           0.723
 3     KEYRTKNNKGRK           0.654
 4     FVSLEVLFISSL           0.561
 5     MNRKEREKKRIK           0.697
 6     AVVSRVPRLFRL           0.724
 7     VGGPRVLVRGVY           0.675
 8     PLSPTTRTRSQS           0.642
 9     APLPASPPIPSS           0.662
10     VFVGGVSVLILF           0.516
11     LCSTSLTPMRPT           0.699
12     GVQEGGGGARGG           0.633
13     SRGQSSNEVSPL           0.637
14     GLPWRGVGGGSG           0.719
15     LPPLLPSLSHAR           0.646
16     LPPSPPTPPQYT           0.698
17     VGGVGGLWVGAV           0.714
18     PGLNHLTPMLPP           0.635

====

Tested on: Saccharomyces cerevisiae;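 also: PSI is a weighted mean of sequencing reads over stability bins, variants kept only with over 10 reads, mCherry proximal and sfGFP distal, peptide attached via GGGS linker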
Test: protein stability index of tFT-peptide fusion (C-terminal peptide) (PSI (0-1 scale)); higher = more stable (slower turnover)
Settings: genetic background: wild type; temperature: 30 C
endpointLabel: protein stability index

    polymersequence  observedresult
 0     YTKIIPIFPEQL           0.631
 1     CLPLFISPFLLG           0.677
 2     IGTGHPRTGLSR           0.682
 3     FSLVHSFRLSFC           0.599
 4     GGGLLMVAASRC           0.634
 5     VVLAFFFWFFVG           0.365
 6     ARVSLSFVSVSA           0.404
 7     SRKASWECVRGG           0.699
 8     NSSPVRSSCLSA           0.688
 9     GRWLYSACVALN           0.395
10     PGPPYPPPPLHP           0.716
11     LGLSFYPPLIIS           0.559
12     FCVGVLFSCLVF           0.394
13     RCTNSLPSYLSH           0.675
14     WPLVLSYRKESA           0.803
15     YNTRLCTFSCML           0.755
16     RVQMTTHGCLIS           0.766
17     LVVFGLVLSLLL           0.469
18     KKKKKRGKTKKK           0.734
19     PPPPPHPTSPFP           0.751
20     WGGGGGKEAVVR           0.655
21     KTKEETNENRNL           0.719
22     YLAGPLARLRKF           0.751
23     PPATPPPPPPFL            0.68
24     PVFPPTPLSPRP           0.571
25     RQNPRLPPPFQP           0.731
26     YAFYLFSRILAA           0.279
27     VFWLLVGLGCFS           0.481
28     FFATFVPSFLLC           0.407
29     PSPHTPPHTFLL           0.755
30     PPPLPPPSPCPL           0.702
31     TSGAEKLPIANS           0.648
32     SSVFLGWLIVCY           0.245
33     KQKKAETQATQK           0.678
34     CVARRPSLIGRN           0.655
35     GVVRTSWGEALR           0.706
36     ATLVRTTWSCHG           0.669
37     LREKFFWTRIRR           0.724
38     EFRWVASGDLLS           0.749
39     GYADDEEEYVTL           0.737
40     GRGLGGWARGWW            0.69

FYI, the data here is from the supplement of paper PMC10724198.
